tested on: SNB-19; experiment: NCI screen, growth of human tumor cells: CNS Cancer SNB-19; format: cell-based; settings: SNB-19, 10^−4 molar
Note to self: values exactly at -90% are satisfied. So % Growth at or above -90% is satisfied, below is not satisfied.

Challenge: Would you say CC(=O)C1(CC2=C(C)C(=O)c3ccccc3C2=O)S(=O)(=O)OCCOS1(=O)=O [NSC 701690] shows % Growth at minimum -90%?
Response given: satisfied

Challenge: Would you say CC=CC(=O)C1(CC2=C(C)C(=O)c3ccccc3C2=O)S(=O)(=O)OCCOS1(=O)=O [NSC 731265] shows % Growth at minimum -90%?
Response given: satisfied

Challenge: Would you say O=S(=O)([O-])OCCCC1S(=O)(=O)OCCOS1(=O)=O.[Na+] [NSC 674994] shows % Growth at minimum -90%?
Response given: satisfied

Challenge: Would you say Cc1ccc2ccccc2c1CC1S(=O)(=O)OCCOS1(=O)=O [NSC 679043] shows % Growth at minimum -90%?
Response given: not satisfied

* * *

tested on: SK-MEL-5; experiment: NCI screen, growth of human tumor cells: Melanoma SK-MEL-5; type: cell-based; conditions: SK-MEL-5 (Melanoma), 10^−4 molar
measured.quantity: percent of growth of human tumor cells (%)
Enter your answer as a number in %; do not include the unit.

Challenge: Provide percent of growth of human tumor cells value for the following compound: CCOCC1(CC2=C(C)C(=O)c3ccccc3C2=O)S(=O)(=O)OCCOS1(=O)=O
Response given: 9

Challenge: Provide percent of growth of human tumor cells value for the following compound: CC1(C)OCC(COC(=O)C(=O)C2(Cc3ccc4c(c3)C(=O)c3ccccc3C4=O)S(=O)(=O)OCCOS2(=O)=O)O1 (stereo not drawn)
Response given: −4

Challenge: Provide percent of growth of human tumor cells value for the following compound: O=S1(=O)OCCOS(=O)(=O)C1Cc1nc2ccccc2[nH]1
Response given: −28

* * *

So I've got a bunch of molecules here, and I need their percent of growth of human tumor cells values.
test system: SF-268; assay: NCI screen, growth of human tumor cells: CNS Cancer SF-268; format: cell-based; details: SF-268 (CNS Cancer), 10^−4 molar
Enter your answer as a number in %; do not include the unit.

Challenge: Provide percent of growth of human tumor cells value for the following molecule: O=S1(=O)OCCOS(=O)(=O)C1(I)I [NSC 648308, ethylene diiodomethanedisulfonate]
Response given: −11

Challenge: Provide percent of growth of human tumor cells value for the following molecule: CCOCC1(COCC)S(=O)(=O)OCCOS1(=O)=O
Response given: 21

Challenge: Provide percent of growth of human tumor cells value for the following molecule: O=S1(=O)OCCOS(=O)(=O)C1c1cccc2cccnc12 [NSC 698122, ethylene 8-quinolylmethanedisulfonate]
Response given: 24

* * *

So I've got a bunch of compounds here, and I need their percent of growth of human tumor cells values.
System: IGROVI
Assay: NCI screen, growth of human tumor cells: Ovarian Cancer IGROVI
Assay type: cell-based
Details: IGROVI (Ovarian Cancer), 10^−4 molar
Method: In the NCI screening process, each compound was tested and described by a minimum of 60 data points. The test data include, but are not limited to the type of cancer, the molar concentration used in the screen, and the percent growth of the cancer. In some cases, NMR and elemental analysis were used for structural assignment.
Form field: result (number plus unit)

Challenge: Provide percent of growth of human tumor cells value for the following compound: CC1=C(CC2(C(=O)C(F)(F)C(F)(F)C(F)(F)F)S(=O)(=O)OCCOS2(=O)=O)C(=O)c2ccccc2C1=O [NSC 720683]
Response given: 27%

Challenge: Provide percent of growth of human tumor cells value for the following compound: CCOCC1(CC2=C(C)C(=O)c3ccccc3C2=O)S(=O)(=O)OCCOS1(=O)=O [NSC 698124]
Response given: 6%

Challenge: Provide percent of growth of human tumor cells value for the following compound: O=S1(=O)OCCOS(=O)(=O)C1c1cccc2cccnc12 [NSC 698122, ethylene 8-quinolylmethanedisulfonate]
Response given: 17%

Challenge: Provide percent of growth of human tumor cells value for the following compound: CCOCC1(COCC)S(=O)(=O)OCCOS1(=O)=O [NSC 698120]
Response given: −28%

Challenge: Provide percent of growth of human tumor cells value for the following compound: CC=CC(=O)C1(Cc2ccc3c(c2)C(=O)c2ccccc2C3=O)S(=O)(=O)OCCOS1(=O)=O [NSC 731263]
Response given: 3%

Challenge: Provide percent of growth of human tumor cells value for the following compound: O=S1(=O)OCCOS(=O)(=O)C1C1c2ccccc2-c2ccccc21 [NSC 686562, ethylene 9-fluorenylmethanedisulfonate]
Response given: 16%

Challenge: Provide percent of growth of human tumor cells value for the following compound: O=S1(=O)OCCOS(=O)(=O)C1(I)I [NSC 648308, ethylene diiodomethanedisulfonate]
Response given: −24%

Challenge: Provide percent of growth of human tumor cells value for the following compound: CC1=C(CC2(S(=O)(=O)C(F)(F)F)S(=O)(=O)OCCOS2(=O)=O)C(=O)c2ccccc2C1=O [NSC 720682]
Response given: −18%

Challenge: Provide percent of growth of human tumor cells value for the following compound: CC=CC(=O)C1(CC2=C(C)C(=O)c3ccccc3C2=O)S(=O)(=O)OCCOS1(=O)=O [NSC 731265]
Response given: 4%

* * *

tested on: human cancer cells; test: NCI screen summary over the cancers tested (negative growth of human cancer cells); assay type: cell-based; details: 10^−5 M conc.; cancers with negative growth / cancers tested
So I've got a bunch of compounds here, and I need their Percentage of cancers showing negative growth cancers tested values.
Enter your answer as a number in %; do not include the unit.

Challenge: Provide Percentage of cancers showing negative growth cancers tested value for the following compound: CC1=C(CC2(C(=O)C(F)(F)C(F)(F)C(F)(F)F)S(=O)(=O)OCCOS2(=O)=O)C(=O)c2ccccc2C1=O
Response given: 100

Challenge: Provide Percentage of cancers showing negative growth cancers tested value for the following compound: Cc1ccc2ccccc2c1CC1S(=O)(=O)OCCOS1(=O)=O
Response given: 9

Challenge: Provide Percentage of cancers showing negative growth cancers tested value for the following compound: CC(=O)C1(CC2=C(C)C(=O)c3ccccc3C2=O)S(=O)(=O)OCCOS1(=O)=O
Response given: 5

Challenge: Provide Percentage of cancers showing negative growth cancers tested value for the following compound: CC=CC(=O)C1(CC2=C(C)C(=O)c3ccccc3C2=O)S(=O)(=O)OCCOS1(=O)=O
Response given: 20

Challenge: Provide Percentage of cancers showing negative growth cancers tested value for the following compound: CC1=C(CC2(S(=O)(=O)C(F)(F)F)S(=O)(=O)OCCOS2(=O)=O)C(=O)c2ccccc2C1=O
Response given: 17

Challenge: Provide Percentage of cancers showing negative growth cancers tested value for the following compound: CC=CC(=O)C1(C2=C(Cl)C(=O)c3ccccc3C2=O)S(=O)(=O)OCCOS1(=O)=O
Response given: 50

Challenge: Provide Percentage of cancers showing negative growth cancers tested value for the following compound: CC1=C(CC2S(=O)(=O)OCCOS2(=O)=O)C(=O)c2ccccc2C1=O
Response given: 12

Challenge: Provide Percentage of cancers showing negative growth cancers tested value for the following compound: O=C(c1ccc2ccccc2c1)C1(I)S(=O)(=O)OCCOS1(=O)=O
Response given: 100

* * *

So I've got a bunch of compounds here, and I need their percent of growth of human tumor cells values.
system: SK-MEL-5; test: NCI screen, growth of human tumor cells: Melanoma SK-MEL-5; assay type: cell-based; details: SK-MEL-5 (Melanoma), 10^−4 molar
Form field: result (number plus unit)

Challenge: Provide percent of growth of human tumor cells value for the following compound: O=S1(=O)OCCOS(=O)(=O)C1C1c2ccccc2-c2ccccc21 [NSC 686562, ethylene 9-fluorenylmethanedisulfonate]
Response given: 4%

Challenge: Provide percent of growth of human tumor cells value for the following compound: O=S1(=O)OCCOS(=O)(=O)C1c1cccc2cccnc12 [NSC 698122, ethylene 8-quinolylmethanedisulfonate]
Response given: 15%

Challenge: Provide percent of growth of human tumor cells value for the following compound: O=C1C(Cl)=C(C2S(=O)(=O)OCCOS2(=O)=O)C(=O)c2ccccc21
Response given: −54%

Challenge: Provide percent of growth of human tumor cells value for the following compound: CCOCC1(COCC)S(=O)(=O)OCCOS1(=O)=O
Response given: 25%

* * *

test system: ACHN; assay: NCI screen, growth of human tumor cells: Renal Cancer ACHN; type: cell-based; details: ACHN (Renal Cancer), 10^−4 molar
So I've got a bunch of compounds here, and I need their percent of growth of human tumor cells values.

Challenge: Provide percent of growth of human tumor cells value for the following compound: CCOCC1(COCC)S(=O)(=O)OCCOS1(=O)=O [NSC 698120]
Response given: 18%

Challenge: Provide percent of growth of human tumor cells value for the following compound: O=S1(=O)CS(=O)(=O)OCCO1 [NSC 348948, ethylene methanedisulfonate]
Response given: 22%

Challenge: Provide percent of growth of human tumor cells value for the following compound: C[Si](C)(OCCS(=O)(=O)O)C1S(=O)(=O)OCCOS1(=O)=O [NSC 674991]
Response given: −10%

Challenge: Provide percent of growth of human tumor cells value for the following compound: O=S1(=O)OCCOS(=O)(=O)C1C1c2ccccc2-c2ccccc21 [NSC 686562, ethylene 9-fluorenylmethanedisulfonate]
Response given: 9%

Challenge: Provide percent of growth of human tumor cells value for the following compound: O=C(c1ccccc1S(=O)(=O)O)C1S(=O)(=O)OCCOS1(=O)=O [NSC 693880]
Response given: 8%

Challenge: Provide percent of growth of human tumor cells value for the following compound: N#CCCC1(CCC#N)S(=O)(=O)OCCOS1(=O)=O [NSC 665941]
Response given: 13%

Challenge: Provide percent of growth of human tumor cells value for the following compound: O=S1(=O)OCCOS(=O)(=O)C1=NNc1c(O)cc(S(=O)(=O)O)c2ccccc12 [NSC 686564]
Response given: 26%

Challenge: Provide percent of growth of human tumor cells value for the following compound: CC1=C(CC2(C(=O)C(F)(F)C(F)(F)C(F)(F)F)S(=O)(=O)OCCOS2(=O)=O)C(=O)c2ccccc2C1=O [NSC 720683]
Response given: −27%

Challenge: Provide percent of growth of human tumor cells value for the following compound: CC1S(=O)(=O)OCCOS1(=O)=O [NSC 372239]
Response given: 20%

Challenge: Provide percent of growth of human tumor cells value for the following compound: O=C1C(Cl)=C(C2S(=O)(=O)OCCOS2(=O)=O)C(=O)c2ccccc21 [NSC 731260]
Response given: −12%
